FYI, the data here is from patent US20240059758A1.

Biological target: RBD-mFc (UniProt P0DTC2 319-591)
Assay: ELISA

{"columns": ["binder", "EC50 (nM)"],
 "data": [
  ["STE70-1E12 (antibody, V domains shown) VH: QMQLVQSGAEVKKPGASVKVSCKASGYTFTGYYMHWVRQAPGQGLEWMGRINPNSGGTNYAQKFQGRVTMTRDTSTSTAYMELSRLRSDDTAVYYCVRDGYNFNNWFDPWGQGTLVTVSS VL: NFMLTQPHSVSGSPGETITISCTGSGGSIASNYVQWYRQRPGSAPTIVIYEDTQRPSGVPDRFSGSIDSSSNSASLTISGLKTEDEADYYCQSSESTNHVMFGGGSKLTVL", 1.1],
  ["STE72-8A6 (antibody, V domains shown) VH: QVQLVQSGAEVKKPGASVKVSCKASGYTFTSYGISWVRQAPGQGLEWMGWISAYNGNTNYAQKLQGRVTMTTDTSTSTAYMELRSLRSDDTAVYYCARFFYDSSGYSTDYWGQGTLVTVSS VL: DIVMTQSPSTLSASVGDRVTISCRASQNIGTWLAWYQQKPGKAPKLLISKASSLESGVPSRFSGSGSGTDFTLTISSLQPDDFATYYCQQYDSYLFTFGQGTKLEIR", 1.5],
  ["STE72-1B6 (antibody, V domains shown) VH: QVKLVQSGGGLVQPGGSLRLSCAASGFTFSSYAMSWVRQAPGKGLEWVSGISGSGGSTYYADSVKGRFTISRDNSKNTLYLQVNSLRAEDTAVYYCAKAPYGDFRGLWYFDYWGQGTLVTVSS VL: DIVMTQSPFSVSASVGDRVTISCRASQDIRSWLAWYQQKPGKAPQLLIYDASSLQSGVPSRFSGSGSGTDFTLTISSLQPEDFATYYCQQADSVPLTFGGGTKVEIQ", 1.6],
  ["STE72-4E12 (antibody, V domains shown) VH: QVQLVQSGAEVKKPGASVKVSCKASGYTFTSYYMHWVRQAPGQGLEWMGIINPSGGSTSYAQKFQGRVTMTRDTSTSTVYMELSSLRSEDTAVYYCARDLSGGLDYWGQGTLVTVSS VL: ETTLTQSPATLSVSPGERVTLACRAGQTISSKLAWYRQKPGQAPSLLIYDASTRATGVPARFSGSGSGTEFTLTISSLQSEDFAVYYCQQYSDWPPTFGQGTKVEIK", 4.7]
]}
